test system: Colon cancer organoid; assay: Identification of compartment-specific drug sensitivities in O20 CRC organoid-stroma F20 CAF co-cultures. Organoid is transduced with Lucferase2-P2A-EGFP lentivirus, fibroblast with Renilla-dsRed lentivirus. Dual-Glo Luciferase assay is used to report viability data.; assay type: functional, Homo sapiens; design: dose or concentration left out as unconfirmed; conditions: Transduced with Renilla-dsRed lentivirus
So I've got a bunch of compounds here, and I need their Cell Viability values.
Give bare numbers, in %.

Some solved cases for reference:
| Compound | Output Unit | Cell Viability |
| --- | --- | --- |
| Cc1cc(C)cc([C@H]2c3cc(C)ccc3NC(=O)CN2C(=O)c2ccc(Br)s2)c1 | % | 98.7461 |
| CN1C(=O)c2sccc2N(C)c2nc(Nc3ccc(S(N)(=O)=O)cc3)ncc21 | % | 84.1947 |
| C[C@]1(O)C[C@@H](c2nc(-c3ccc4ccc(-c5ccccc5)nc4c3)c3c(N)nccn32)C1 | % | 65.9185 |
| COc1cc(Nc2nccc(-c3cnn4nc(OC)ccc34)n2)cc(C(F)(F)F)c1 | % | 189.711 |
| COc1ccccc1C(=O)Nc1cc2c(cc1N1CCCC1)n(C)c(=O)n2C | % | 143.545 |

For each of the items listed, what is its Cell Viability?
1. Cc1cnc(Nc2ccc(F)cc2Cl)nc1-c1c[nH]c(C(=O)N[C@H](CO)c2cccc(Cl)c2)c1
2. COc1cc(Nc2nc(C)cc(-c3cnn4nc(OC)ccc34)n2)cc(C(F)(F)F)c1
3. CN1CCN(Cc2ccc(Nc3ncc(Cl)c(Nc4ccccc4S(=O)(=O)N(C)C)n3)cc2)CC1
4. CN(C)CC#Cc1ccc(OCCCc2sc(N3CCc4cccc(C(=O)Nc5nc6ccccc6s5)c4C3)nc2C(=O)O)c(F)c1
5. C=CC(=O)N1CCC([C@@H]2CCNc3c(C(N)=O)c(-c4ccc(Oc5ccccc5)cc4)nn32)CC1
6. CC[C@@H]1C(=O)N(C)c2cnc(Nc3ccc(C(=O)NC4CCN(C)CC4)cc3OC)nc2N1C1CCCC1
7. N#CN1CC[C@H](C(=O)Nc2nc3c(s2)CN(C(=O)CN=[N+]=[N-])CC3)C1

-- reply
113.857
99.6244
16.1981
177.943
202.782
168.723
105.29

====

So I've got a bunch of molecules here, and I need their Cell Viability values.
system: Colon cancer organoid; test: Identification of compartment-specific drug sensitivities in O20 CRC organoid-stroma F20 CAF co-cultures. Organoid is transduced with Lucferase2-P2A-EGFP lentivirus, fibroblast with Renilla-dsRed lentivirus. Dual-Glo Luciferase assay is used to report viability data.; format: functional, Homo sapiens; design: dose or concentration left out as unconfirmed; settings: Transduced with Renilla-dsRed lentivirus
Numbers only, in %.

Some solved cases for reference:
| Smiles Notation | Cell Viability (%) |
| --- | --- |
| COc1cc(OC)cc(-c2noc(N3CCN(C)C4(CCN(c5ccnc(C)c5)CC4)C3)n2)c1 | 146.282 |
| Cc1noc([C@H]2C[C@@H](c3ccc(C(F)(F)F)cc3)CN(C(=O)N3CCS(=O)(=O)C3)C2)n1 | 84.5218 |
| Cc1cc(F)c(C(=O)Nc2cccc(-c3nncn3C(C)C)n2)cc1-n1cnc(C2CC2)c1 | 89.2485 |
| CCCOc1ccn2c(C(C)=O)cc(-c3cccc(OC)c3)c2c1 | 110.044 |

-- ask Can you look up the measured Cell Viability of CC1=C(C#N)C(c2ccc3c(c2)c(NC(=O)c2ccccc2C)nn3C)C(C#N)=C(C)N1 for me?
-- reply 128.576

====

system: Colon cancer organoid; test: Identification of compartment-specific drug sensitivities in O20 CRC organoid-stroma F20 CAF co-cultures. Organoid is transduced with Lucferase2-P2A-EGFP lentivirus, fibroblast with Renilla-dsRed lentivirus. Dual-Glo Luciferase assay is used to report viability data.; type: functional, Homo sapiens; parameters: dose or concentration left out as unconfirmed; settings: Transduced with Lucferase2-P2A-EGFP lentivirus
Labelling field: enter true if recorded Cell Viability is less than 90%. Enter false if it equals or exceeds that cut-off.

-- ask Lab note: Cell Viability threshold 90%. Does this compound come in strictly under it? Cl.Cl.NC1(c2ccc(-c3nc4ccn5c(=O)[nH]nc5c4cc3-c3ccccc3)cc2)CCC1
-- reply true

-- ask Lab note: Cell Viability threshold 90%. Does this compound come in strictly under it? CCN(Cc1ccc(Cl)cc1)c1ncc(C(=O)NCCCN2CCCC2=O)c(NC2CCCC2)n1
-- reply true

-- ask Lab note: Cell Viability threshold 90%. Does this compound come in strictly under it? Cc1cnc(-c2cc(Cl)ccc2F)cc1-n1c(=O)n(CC(N)=O)c2ccccc21
-- reply false

-- ask Lab note: Cell Viability threshold 90%. Does this compound come in strictly under it? CNCCN1CCC(c2cc(CN(C)C(=O)c3cccc(Oc4ccccc4)c3)ccn2)CC1
-- reply true

-- ask Lab note: Cell Viability threshold 90%. Does this compound come in strictly under it? COc1cc2c(cc1-c1c(C)noc1C)ncc1[nH]c(=O)n([C@H](C)c3ccccn3)c12
-- reply true

-- ask Lab note: Cell Viability threshold 90%. Does this compound come in strictly under it? COc1ccc2c(c1)O[C@H](c1ccc(OC)c(OC)c1)C[C@@H]2NC(=O)C1(c2ccc3c(c2)OC(F)(F)O3)CC1
-- reply true

-- ask Lab note: Cell Viability threshold 90%. Does this compound come in strictly under it? Cc1ccc2nc(NCCN)c3ncc(C)n3c2c1.O=C(O)C(F)(F)F.O=C(O)C(F)(F)F
-- reply false

-- ask Lab note: Cell Viability threshold 90%. Does this compound come in strictly under it? CNCCN1CCC(OCc2ccccc2)CC1
-- reply true

-- ask Lab note: Cell Viability threshold 90%. Does this compound come in strictly under it? Cc1nc(NC(=O)N2CCC[C@H]2C(N)=O)sc1-c1ccnc(C(C)(C)C(F)(F)F)c1
-- reply true

-- ask Lab note: Cell Viability threshold 90%. Does this compound come in strictly under it? Cc1ccccc1Oc1cc(-n2c(=O)cc(C(F)(F)F)[nH]c2=O)c2ccccc2c1Cl
-- reply true

-- ask Lab note: Cell Viability threshold 90%. Does this compound come in strictly under it? C[C@@H](Oc1cc(-n2cnc3ccc(CN4CCN(C)CC4)cc32)sc1C(N)=O)c1ccccc1C(F)(F)F
-- reply true

-- ask Lab note: Cell Viability threshold 90%. Does this compound come in strictly under it? CCOC(=O)CCNc1cc(N2CCc3ccccc3CC2)nc(-c2ccccn2)n1
-- reply false

-- ask Lab note: Cell Viability threshold 90%. Does this compound come in strictly under it? CCCOc1ccn2c(C(C)=O)cc(-c3ccccc3S(C)(=O)=O)c2c1
-- reply false

-- ask Lab note: Cell Viability threshold 90%. Does this compound come in strictly under it? C[C@@H]1CCc2ncc(F)cc2[C@H]2CCCN2c2ccn3ncc(c3n2)C(=O)N1
-- reply false

====

tested on: Colon cancer organoid; assay: Identification of compartment-specific drug sensitivities in O06 CRC organoid-stroma F06 CAF co-cultures. Organoid is transduced with Lucferase2-P2A-EGFP lentivirus, fibroblast with Renilla-dsRed lentivirus. Dual-Glo Luciferase assay is used to report viability data.; type: functional, Homo sapiens; parameters: dose or concentration left out as unconfirmed; conditions: Transduced with Renilla-dsRed lentivirus
Non-standard residues stand in square brackets, D forms with d. Residues, ends and D or L forms follow the SMILES beside them. Arg(Me) = CNC(=N)NCCC[C@H](N)C(=O)O; d3Pal = N[C@H](Cc1cccnc1)C(=O)O; azaGly = NNC(=O)O
So I've got a bunch of compounds here, and I need their Cell Viability values.
Answers are plain numbers, in %.

Some solved cases for reference:
| Compound | Output Unit | Cell Viability |
| --- | --- | --- |
| CCN(CCO)CCCOc1ccc2c(Nc3cc(CC(=O)Nc4cccc(F)c4)[nH]n3)ncnc2c1 | % | 166.163 |
| COc1ccc(Oc2cc(NCCC(F)(F)F)c3ncc(-c4ccc(C(=O)NC5CC5)c(C)c4)n3n2)c(F)c1F | % | 100.303 |
| CCc1cc2cc(NS(=O)(=O)c3ccc(C#N)cc3)ccc2n(CC)c1=O | % | 102.933 |

For each of the items listed, what is its Cell Viability?
1. CNC(=N)NCCC[C@H](NC(=O)[C@H](CC(C)C)NC(=O)NNC(=O)[C@H](Cc1ccccc1)NC(=O)[C@H](CO)NC(=O)[C@H](CC(N)=O)NC(=O)[C@@H](Cc1cccnc1)NC(=O)[C@H](N)Cc1ccc(O)cc1)C(=O)NCC(N)=O [KISS1-543] (H-[dY][d3Pal]NSF[azaGly]L[Arg(Me)]G-NH2)
2. CCOC(=O)Nc1cc(-c2ccc(C)c(NS(C)(=O)=O)c2)nn2c(C)nnc12
3. CCCCN(CCCC)C(=O)CN1C[C@@H](c2cc(OC)c3c(c2)OCO3)[C@H](C(=O)O)[C@H]1CC(C)(C)CCC

-- reply
1: 90.9674; 2: 266.102; 3: 55.5874
